molecular target: Cholinesterase (Equus caballus, UniProt P81908)
Sequence (P81908 whole entry): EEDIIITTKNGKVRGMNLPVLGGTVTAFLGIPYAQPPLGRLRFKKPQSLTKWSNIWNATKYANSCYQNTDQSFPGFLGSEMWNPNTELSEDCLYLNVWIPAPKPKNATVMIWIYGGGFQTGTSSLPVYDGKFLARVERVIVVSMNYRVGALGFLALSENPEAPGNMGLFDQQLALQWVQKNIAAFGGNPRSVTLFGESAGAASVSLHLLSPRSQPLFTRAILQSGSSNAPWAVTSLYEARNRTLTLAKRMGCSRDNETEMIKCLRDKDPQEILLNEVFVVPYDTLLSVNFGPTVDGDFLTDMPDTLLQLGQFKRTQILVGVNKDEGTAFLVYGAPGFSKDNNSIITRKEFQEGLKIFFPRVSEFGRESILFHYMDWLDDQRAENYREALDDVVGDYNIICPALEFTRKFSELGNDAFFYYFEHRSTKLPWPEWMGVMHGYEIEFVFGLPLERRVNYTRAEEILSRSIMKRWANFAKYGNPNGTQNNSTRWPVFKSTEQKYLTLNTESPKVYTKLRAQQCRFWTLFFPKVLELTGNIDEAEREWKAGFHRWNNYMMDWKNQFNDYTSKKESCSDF
pIC50: −log10 of the molar value.
reported_property: pIC50

In [3]: df
Out[3]:
                                    molecule                         system_under_test  reported_value
 0  COc1cccc(C(=O)C(CC2CCN(Cc3ccccc3)CC2)C(C)=O)c1 (stereo not drawn)  Cholinesterase (Equus caballus, UniProt P81908)            4.84
 1  COc1ccc(C(=O)C(CCC2CCN(Cc3ccccc3)CC2)C(C)=O)cc1 (stereo not drawn)  Cholinesterase (Equus caballus, UniProt P81908)            5.79
 2  COc1ccc(C(=O)CC(=O)CC2CCN(Cc3ccccc3)CC2)cc1OC  Cholinesterase (Equus caballus, UniProt P81908)            5.63
 3  COCOc1ccc(C(=O)C(CCC2CCN(Cc3cccc(C)c3)CC2)C(C)=O)cc1OC (stereo not drawn)  Cholinesterase (Equus caballus, UniProt P81908)            5.51
 4  COc1cccc(C(=O)C(CCC2CCN(Cc3cccc(C)c3)CC2)C(C)=O)c1 (stereo not drawn)  Cholinesterase (Equus caballus, UniProt P81908)            5.73
 5  COc1ccc(C(=O)C(CC2CCN(Cc3ccccc3)CC2)C(C)=O)cc1OC (stereo not drawn)  Cholinesterase (Equus caballus, UniProt P81908)            4.68
 6  COc1ccc(C(=O)C(CCC2CCN(Cc3cccc(C)c3)CC2)C(C)=O)cc1O (stereo not drawn)  Cholinesterase (Equus caballus, UniProt P81908)            4.78
 7  COc1ccc(C(=O)C(CCC2CCN(Cc3ccccc3)CC2)C(C)=O)cc1OC (stereo not drawn)  Cholinesterase (Equus caballus, UniProt P81908)            5.55
 8  COc1cc(C(=O)C(CCC2CCN(Cc3cccc(C)c3)CC2)C(C)=O)ccc1O (stereo not drawn)  Cholinesterase (Equus caballus, UniProt P81908)            5.47
 9  COc1ccc(C(=O)CC(=O)CC2CCN(Cc3cccc(C)c3)CC2)cc1O  Cholinesterase (Equus caballus, UniProt P81908)            5.01
10  COc1cc(C(=O)C(CCC2CCN(Cc3ccccc3)CC2)C(C)=O)ccc1O (stereo not drawn)  Cholinesterase (Equus caballus, UniProt P81908)            4.81
11  COc1ccc(C(=O)C(CCC2CCN(Cc3cccc(C)c3)CC2)C(C)=O)cc1OC (stereo not drawn)  Cholinesterase (Equus caballus, UniProt P81908)            5.70
12  COc1ccc(C(=O)CC(=O)CC2CCN(Cc3ccccc3)CC2)cc1O  Cholinesterase (Equus caballus, UniProt P81908)            4.91

----------
pIC50: −log10 of the molar value.
# pIC50 per entry for Acetylcholinesterase (Electrophorus electricus)
reported_property: pIC50

                                    compound                         system_under_test  reported_value
 0  COc1ccc(C(=O)C(CC2CCN(Cc3ccccc3)CC2)C(C)=O)cc1OC (stereo not drawn)  Acetylcholinesterase (Electrophorus electricus)            5.59
 1  COc1ccc(C(=O)C(CCC2CCN(Cc3ccccc3)CC2)C(C)=O)cc1OC (stereo not drawn)  Acetylcholinesterase (Electrophorus electricus)            6.43
 2  COc1cc(C(=O)C(CCC2CCN(Cc3ccccc3)CC2)C(C)=O)ccc1O (stereo not drawn)  Acetylcholinesterase (Electrophorus electricus)            5.69
 3  COc1ccc(C(=O)CC(=O)CC2CCN(Cc3ccccc3)CC2)cc1O  Acetylcholinesterase (Electrophorus electricus)            6.73
 4  COCOc1ccc(C(=O)C(CCC2CCN(Cc3cccc(C)c3)CC2)C(C)=O)cc1OC (stereo not drawn)  Acetylcholinesterase (Electrophorus electricus)            6.47
 5  COc1cc(C(=O)C(CCC2CCN(Cc3cccc(C)c3)CC2)C(C)=O)ccc1O (stereo not drawn)  Acetylcholinesterase (Electrophorus electricus)            6.02
 6  COc1ccc(C(=O)CC(=O)CC2CCN(Cc3cccc(C)c3)CC2)cc1O  Acetylcholinesterase (Electrophorus electricus)            6.64
 7  COc1ccc(C(=O)C(CCC2CCN(Cc3cccc(C)c3)CC2)C(C)=O)cc1OC (stereo not drawn)  Acetylcholinesterase (Electrophorus electricus)            6.58
 8  COc1ccc(C(=O)C(CCC2CCN(Cc3cccc(C)c3)CC2)C(C)=O)cc1O (stereo not drawn)  Acetylcholinesterase (Electrophorus electricus)            6.21
 9  COc1ccc(C(=O)C(CCC2CCN(Cc3ccccc3)CC2)C(C)=O)cc1 (stereo not drawn)  Acetylcholinesterase (Electrophorus electricus)            6.29
10  COc1cccc(C(=O)C(CC2CCN(Cc3ccccc3)CC2)C(C)=O)c1 (stereo not drawn)  Acetylcholinesterase (Electrophorus electricus)            5.75
11  COc1cccc(C(=O)C(CCC2CCN(Cc3cccc(C)c3)CC2)C(C)=O)c1 (stereo not drawn)  Acetylcholinesterase (Electrophorus electricus)            6.26
12  COc1ccc(C(=O)CC(=O)CC2CCN(Cc3ccccc3)CC2)cc1OC  Acetylcholinesterase (Electrophorus electricus)            6.83

----------
experiment: Permeability of the compound at […] after 10 hrs by PAMPA; type: physicochemical; details: read-out: permeability
reported_property: Papp at 10 h (×10⁻⁶ cm/s)

In [3]: df
Out[3]:
                                smiles_repr  reported_property  unit_abbreviation  reported_value
0  COc1ccc(C(=O)CC(=O)CC2CCN(Cc3cccc(C)c3)CC2)cc1O       Papp at 10 h         ×10⁻⁶ cm/s            11.3
1  COc1ccc(C(=O)CC(=O)CC2CCN(Cc3ccccc3)CC2)cc1OC       Papp at 10 h         ×10⁻⁶ cm/s            12.1
2  COc1ccc(C(=O)CC(=O)CC2CCN(Cc3ccccc3)CC2)cc1O       Papp at 10 h         ×10⁻⁶ cm/s            11.8

----------
assay: Antioxidant activity assessed as trolox equivalent of APPH-induced radical scavenging activity at 0.117 to 10 uM preincubated for 10 mins followed by AAPH addition measured every minute for 90 mins by ORAC fluorescein assay; assay type: functional
reported_property: Activity (equiv)

>>> print(df.to_string())
                                smiles_repr  unit_abbreviation  reported_value
0  COc1ccc(C(=O)CC(=O)CC2CCN(Cc3ccccc3)CC2)cc1OC              equiv             1.1
1  COc1ccc(C(=O)CC(=O)CC2CCN(Cc3cccc(C)c3)CC2)cc1O              equiv            2.49
2  COc1cc(/C=C/C(=O)CC(=O)/C=C/c2ccc(O)c(OC)c2)ccc1O              equiv            2.52
3  COc1ccc(C(=O)CC(=O)CC2CCN(Cc3ccccc3)CC2)cc1O              equiv            3.07
